- System tested: MKNK1 (human) (UniProt Q9BUB5)
- Sequence (Q9BUB5 whole entry, looked up): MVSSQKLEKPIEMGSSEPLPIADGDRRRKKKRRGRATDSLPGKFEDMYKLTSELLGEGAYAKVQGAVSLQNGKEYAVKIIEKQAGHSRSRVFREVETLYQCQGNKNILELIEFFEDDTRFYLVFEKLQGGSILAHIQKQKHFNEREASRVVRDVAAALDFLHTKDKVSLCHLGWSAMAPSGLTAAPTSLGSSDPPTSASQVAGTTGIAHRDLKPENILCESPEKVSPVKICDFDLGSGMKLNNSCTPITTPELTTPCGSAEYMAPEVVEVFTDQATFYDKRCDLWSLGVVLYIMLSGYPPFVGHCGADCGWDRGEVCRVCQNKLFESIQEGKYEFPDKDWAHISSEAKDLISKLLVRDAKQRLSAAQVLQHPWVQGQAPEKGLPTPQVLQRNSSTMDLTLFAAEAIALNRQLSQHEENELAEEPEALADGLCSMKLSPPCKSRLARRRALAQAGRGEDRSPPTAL
- Assay details: Caliper, Mobility shift assay off-chip
- Experimental setup: compound 0.02 µM
Endpoint label: inhibition (%)
Value expressed in %; do not type the unit.

Please review the entries below; each comes with its answer.
| Smiles text | System tested | Endpoint label | U | Measured result |
| --- | --- | --- | --- | --- |
| Cc1ccc(Nc2nccc(N(C)c3ccc4c(C)n(C)nc4c3)n2)cc1S(N)(=O)=O | MKNK1 (human) (UniProt Q9BUB5) | inhibition | % | 6.1 |
| CNC(=O)c1cc(Oc2ccc(NC(=O)Nc3ccc(Cl)c(C(F)(F)F)c3)cc2)ccn1 | MKNK1 (human) (UniProt Q9BUB5) | inhibition | % | -1.3 |

What does the data say about its inhibition? Entry: CNC(=O)c1ccccc1Sc1ccc2c(/C=C/c3ccccn3)n[nH]c2c1
4.1

Now consider COc1cc2c(Oc3ccc4[nH]c(C)cc4c3F)ncnc2cc1OCCCN1CCCC1 and answer again.
-2.9
